So I've got a bunch of compounds here, and I need their growth inhibition values.
- Assay comment: NCI Yeast Anticancer Drug Screen. Data for the cln2 rad14 strain (AID 165);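 further: 0% = growth equal to vehicle treated cultures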
- Condition label: S. cerevisiae cln2 rad14 strain, at 50.0 µM, hits give high values
This is part of a sample that, as a whole, favours compounds with a hit. Of some 79,000 tested, about 15% had one in any assay. Calls of active or inactive are those of the source. No stated cut-off is given here; in the data, active means growth inhibition above about 70%; inactive means the rest.

Consider the compound `CCC(=O)c1cc([N+](=O)[O-])c(Br)s1` . State its measured growth inhibition.
98.8% (active)

Quote growth inhibition reported for `CC1=C(Cl)C[C@@H](/C(C)=C\Cl)O[C@@]1(O)C(Br)Br` please.
91.2% (active)

Indicate the recorded growth inhibition value for this compound: `O=C1c2ccccc2C(=O)c2c(O)c(Cl)cc(O)c21`
-55.6% (inactive)

Answer with reported growth inhibition of `N#CC(=C1SCS1)[N+](=O)[O-]`
92.2% (active)

# return recorded growth inhibition for input `CC1=C(C2=C(C)C(=O)C(=O)c3cc(C)ccc32)c2ccc(C)cc2C(=O)C1=O`
89.8% (active)

Give the reported growth inhibition for this compound. `COc1ccc(Nc2nc3ccc(C(F)(F)F)cc3nc2C(=O)O)cc1`
68.3% (inactive)

Provide only the value of recorded growth inhibition for `O=C1C=Cc2ccccc2/C1=C/c1nc(-c2ccccc2)oc1O`
86.5% (active)

Give a short answer stating reported growth inhibition for `Oc1ccc2ccccc2c1N=Nc1ccccn1` .
92.8% (active)

Read the entry `CCCCCCCCCCCCCCCc1ccc(C(=O)C[n+]2ccccc2)cc1` and write its reported growth inhibition.
54% (inactive)

Give recorded growth inhibition. `Cc1cc(C)c([I+]c2c(C)cc(C)cc2C)c(C)c1`
56.6% (inactive)

Note down growth inhibition recorded for `CCCCCCCCCCCCNCCCc1ccccc1`
98.8% (active)

Given `C=CCO/N=C/c1cc(NC(=S)c2ccoc2C)ccc1Cl` , respond with its growth inhibition.
84.3% (active)

Provide one value: measured growth inhibition of `CCOC(=O)COc1cc(-c2ccccc2F)nc2cc3c(cc12)OCO3`
23.6% (inactive)

====

- Assay comment: NCI Yeast Anticancer Drug Screen. Data for the cln2 rad14 strain (AID 165);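 further: 0% = growth equal to vehicle treated cultures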
- Condition label: S. cerevisiae cln2 rad14 strain, at 5.0 µM (retest, dose inferred, filed as 0.5), hits give high values
This is part of a sample that, as a whole, favours compounds with a hit. Of some 79,000 tested, about 15% had one in any assay.
Parameter: growth inhibition (%)
Your answer should be a plain number; it is taken to be in %.

Give the reported value of growth inhibition for this record: O=C(c1ccccc1)C(Br)C(Br)c1ccccc1 (configuration not stated)
18

Check the records and state growth inhibition for `CNc1ncnc2nc(C)[nH]c12`
2

Look up and report measured growth inhibition for this entry: `COCc1c(C#N)c(Cl)nc(C)c1[N+](=O)[O-]`
2

Report growth inhibition for `O=C1C=CC(=O)N1c1cccc2c1CCCC2`
99

Given `O=C(CCl)N1c2ccccc2Sc2c1ccc1ccccc21` , respond with its growth inhibition.
20

Fill in growth inhibition for record `O=C1CSC(=S)N1Cc1cccnc1`
32

Tell us which growth inhibition value is on record for `CC1(O)CCCCCC1`
28

====

- Assay comment: NCI Yeast Anticancer Drug Screen. Data for the rad50 strain (AID 155);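 further: 0% = growth of vehicle-only cultures of the same strain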
- Condition label: S. cerevisiae rad50 strain growth inhibition; at 50.0 µM (retest, dose inferred, filed as 5.0); hits give high values
About 79,000 compounds went through this panel and 15% of them were active in at least one assay; those are over-represented in the sample as a whole. Where a SMILES comes first, the peptide text is derived from it. [ ]: non-standard residue; d: D form. ξ: configuration not given here. ξD = NC(CC(=O)O)C(=O)O
Parameter: growth inhibition (%)
All answers are understood in %, so give the number only.

Identify the reported growth inhibition for the following entry. NCC(=O)NC(CC(=O)O)C(=O)O (stereo unspecified) (H-Gly-[ξD]-OH)
10

// Input: `O=C(CCl)N(c1ccccc1)c1ccccc1` . Output its growth inhibition only.
59

Identify growth inhibition associated with the molecule `CC1=CC(=NC(=O)CBr)C=C/C1=N\S(=O)(=O)c1ccccc1`
99

Name the recorded growth inhibition of the item `COc1ccc(OC)c(Cc2cnc3nc(N)nc(N)c3c2C)c1` in your answer.
35

Respond only with growth inhibition recorded for `NC(=S)Nc1ccc2c(c1)Cc1ccccc1-2`
29

Using the record for `Cc1cc(C(=O)c2ccc(Cl)cc2)ccc1O` , state its measured growth inhibition.
4

Indicate its recorded growth inhibition; the molecule in question is COc1ccc2c(c1)C(OC)C1c3c(cc4c(c3-2)OCO4)CCN1C (stereo unspecified)
52

For the molecule `CN(C)c1ccc(/C=C/c2sc3ccc4ccccc4c3[n+]2C)cc1` , give its reported growth inhibition.
96

For the molecule CC(C)NC(=O)C(C)O (stereo unspecified) , report growth inhibition.
14

For `Oc1ccc(Cl)cc1C(c1cc(Cl)ccc1O)C(Cl)(Cl)Cl` , write its growth inhibition.
99

Assign growth inhibition to the following record: `O=C(OC12CC3CC(CC(C3)C1)C2)c1ccc(NCc2cc(O)ccc2O)cc1`
94

Using the record for `CCCCCCCCCCCC[n+]1ccc(CCCCCCCCC)cc1` , state its measured growth inhibition.
99

Tell us which growth inhibition value is on record for `O=C(Nc1cccc(C(F)(F)F)c1)Oc1ccc(Cl)c2cccnc12`
98

Read off the recorded growth inhibition for `COc1ccc(NC(=O)/C(=C/N2C(=O)/C(=C/c3ccc(OC)c(OC)c3)NC2=S)C(C)=O)cc1`
66

Specify reported growth inhibition for the molecule shown: `O=C(/C=C/c1ccccc1)CCC1C(=O)c2ccccc2C1=O`
40

Note down growth inhibition recorded for `CCOC(=O)c1[nH]c(C#N)c(C(=O)OCC)c1C`
76

Give recorded growth inhibition. N#CC(I)CS(=O)(=O)c1ccccc1 (stereo unspecified)
99

Kindly indicate its recorded growth inhibition. Item: `Oc1ccc(Br)cc1Sc1cc(Br)ccc1O`
99

State its growth inhibition for this molecule: CCN(CC)CCNC(Cc1ccccc1)c1ccc(OCc2ccccc2)cc1 (stereo unspecified)
98

Return growth inhibition for the following molecule: `Cc1nc(Sc2nc3ccc([N+](=O)[O-])cc3s2)sc1C`
86

Read the entry `Clc1ccc(-n2ncc3c(NCCCN4CCOCC4)ncnc32)cc1` and write its reported growth inhibition.
82

Give the reported value of growth inhibition for this record: Oc1c(Cl)cc(Cl)cc1C=NCC1CCC(CN=Cc2cc(Cl)cc(Cl)c2O)CC1 (stereo unspecified)
86

Look up growth inhibition of `COCc1c(C#N)c(Cl)nc(C)c1[N+](=O)[O-]` and report it.
76

Write down growth inhibition measured for item `Cc1cccc2c(N)c3ccccc3nc12`
57

Please indicate growth inhibition recorded for `S=c1[nH]c2cc(Cl)ccc2s1`
64

Check the records and state growth inhibition for `CC(C)(C)c1cc([N+](=O)[O-])c(O)c([N+](=O)[O-])c1`
89

For `C1=C(c2ccccc2)c2ccccc2C1` , write its growth inhibition.
29

Output measured growth inhibition for this item: `CSc1nc(C)c(C(=O)CCN2CCN(c3ccccn3)CC2)s1`
99

Kindly indicate its recorded growth inhibition. Item: `O=C1C=CC(=O)N1C1CCCCCCCCCCC1`
66

Identify the reported growth inhibition for the following entry. `CCN(CC)CCNc1ccc([N+](=O)[O-])c2sc3ccccc3c(=O)c12`
95

Supply recorded growth inhibition for Cc1cc(O)c2c(c1)C(=O)C(c1c(C)cc3c(c1O)C(=O)C1OC1C3=O)=CC2=O (stereo unspecified) here.
96

Give the measured growth inhibition for C=C1C(=O)OC2CC3(C)CCCC(C)C3=CC12 (stereo unspecified)
27

Answer with the recorded growth inhibition for the molecule listed here: `N=C(N)Sc1cccc[n+]1[O-]`
99

Look up and report measured growth inhibition for this entry: `COc1ccc2c(c1)c(CC(=O)O)c(C)n2C(=O)c1ccc(Cl)cc1`
37

Provide only the value of recorded growth inhibition for `Oc1ccc2ccccc2c1N=Nc1nccs1`
69

Indicate its recorded growth inhibition; the molecule in question is `COc1ccc(/C=C2/C(=O)ON=C2C)cc1`
10

Look up growth inhibition of `CNc1ncnc2nc(C)[nH]c12` and report it.
20

Tell us which growth inhibition value is on record for `CCOC(=O)C1=NN(c2ccccc2)C(=O)/C1=C\N1C(=O)/C(=C/c2cccc(O)c2)SC1=S`
11

Give growth inhibition for the following molecule: `CN(C)c1ccc(/C=C/c2ccnc3ccccc23)cc1`
95

Given CCN(CC)CC(O)c1cc(-c2ccc(Cl)cc2)nc2cc(Cl)ccc12 (stereo unspecified) , respond with its growth inhibition.
99

Specify reported growth inhibition for the molecule shown: `O=[N+]([O-])c1ccc2c(c1)Cc1ccccc1-2`
-11

For CCCCCCCCCCCC[n+]1ccccc1 (tested in a mixture with another compound) , write its growth inhibition.
96

Please give measured growth inhibition of the following entry: `O=C1C=CC(=O)N1c1cccc2c1CCCC2`
99

Answer with reported growth inhibition of `Cc1cc(N/N=C/c2ccccn2)nc2ccccc12`
94

Give the measured growth inhibition for O=C(CBr)C(Br)C(Br)c1ccccc1 (stereo unspecified)
99

Find the measured growth inhibition of CCC(C)C(N)C(=O)NC(CC(N)=O)C(=O)NC(CC(C)C)C(=O)NC(CCCCN)C(=O)NC(C)C(=O)NC(CC(C)C)C(=O)NC(C)C(=O)NC(C)C(=O)NC(CC(C)C)C(=O)NC(C)C(=O)NC(CCCCN)C(=O)NC(CCCCN)C(=O)NC(C(=O)NC(CC(C)C)C(N)=O)C(C)CC (stereo unspecified) and report it.
99
